Origin of values: ChEMBL document CHEMBL1201862

- Test system: NCI-H522
- ASSAY_COMMENT: NCI tumour cell line growth inhibition, 48 h
Active and inactive are the calls of the source. Rule as the data show it: active = GI50 up to about 1.1 µM and inactive = higher.

{"COMPOUND": "COc1ccc(OC2OC(COC(c3ccccc3)(c3ccc(OC)cc3)c3ccc(OC)cc3)C(O)C(O)C2O)cc1 (centres undefined)", "GI50": "3.49 µM (inactive)"}
{"COMPOUND": "CN(C)C(=O)C1CCN(Cc2c[nH]c3ccccc23)CC1", "GI50": "> 100 µM (inactive)"}
{"COMPOUND": "Cc1cc(N(CCC#N)CCC#N)ccc1C(/N=N/c1ccc(C(=O)O)cc1)=N\\NC(=O)c1ccccc1", "GI50": "13.2 µM (inactive)"}
{"COMPOUND": "CNn1c(-c2ccc(C)cc2)n[nH]c1=O", "GI50": "> 100 µM (inactive)"}
{"COMPOUND": "COc1cc(C(=O)O[C@@H]2[C@@H](OC(=O)c3cc(OC)c(OC)c(OC)c3)[C@@H](OC)O[C@@H]3CO[C@@H](c4ccccc4)O[C@@H]23)cc(OC)c1OC", "GI50": "> 100 µM (inactive)"}
{"COMPOUND": "CC1(C)CCC2(C(=O)OC3OC(CO)C(O)C(O)C3O)CCC3(C)C(=CCC4C5(C)CCC(OC6OC(CO)C(O)C(O)C6O)C(C)(C)C5CCC43C)C2C1 (centres undefined)", "GI50": "5.36 µM (inactive)"}
{"COMPOUND": "NCCc1c[nH]c2ccc(OC(=O)C(=O)O)cc12", "GI50": "> 100 µM (inactive)"}
{"COMPOUND": "N#CC(NCCc1ccccc1)c1ccccc1 (centres undefined)", "GI50": "> 100 µM (inactive)"}
{"COMPOUND": "C=CC[P@]1(=O)O[C@H](c2ccccc2)C(C)N1C(C)C (some centres undefined)", "GI50": "> 100 µM (inactive)"}

---

- Tested on: SF-295
- ASSAY_COMMENT: NCI tumour cell line growth inhibition, 48 h
Calls of active or inactive are those of the source. Rule as the data show it: active = GI50 up to about 1.1 µM and inactive = higher.
Possible outcomes: true (1) for active, false (0) for inactive

{"MOLECULE": "CCN(CC)CCn1ncc2c(N)ncnc21", "CAT": "false (0)"}
{"MOLECULE": "CC1OC(OC2C(O)COC(OC3C(C)OC(OC4C(OC(=O)[C@]56CCC(C)(C)C[C@@H]5C5=CCC7[C@@]8(C)C[C@H](O)[C@H](OC9OC(CO)C(O)C(OC%10OC(CO)C(O)C(O)C%10O)C9O)[C@@](C)(CO)[C@@H]8CC[C@@]7(C)[C@]5(C)CC6)OCC(O)C4O)C(O)C3OC3OCC(O)(CO)C3O)C2O)C(O)C(O)C1O (stereo partly specified)", "CAT": "false (0)"}
{"MOLECULE": "CCCCCC(=O)CCCCCCCC(O)CC(=O)OCC (stereo unspecified)", "CAT": "false (0)"}
{"MOLECULE": "CNC1C(O)CC(OC2C/C=C(\\C)C/C(C)=C/C=C/CCC(C)CNC(=O)/C=C/C=C/C2C)OC1C (stereo unspecified)", "CAT": "true (1)"}
{"MOLECULE": "Cc1ccc(-n2c(=S)[nH]c3ccc(Br)cc3c2=O)cc1", "CAT": "false (0)"}
{"MOLECULE": "CCOC(=O)NNC(=O)C1CSC(c2ccccc2)N1C(C)=O (stereo unspecified)", "CAT": "false (0)"}
{"MOLECULE": "C=C(C)CCN[Si](c1ccccc1)(c1ccccc1)C(C)(C)C", "CAT": "false (0)"}
{"MOLECULE": "COc1cc(CNc2nc3ccccc3nc2C(=O)O)cc(OC)c1OC", "CAT": "false (0)"}
{"MOLECULE": "CC1CC[P+](c2ccccc2)(c2ccccc2)CC1", "CAT": "false (0)"}
{"MOLECULE": "CCN(CC)C(=S)/N=C(\\SC(=S)N(CC)CC)c1ccccc1", "CAT": "false (0)"}
{"MOLECULE": "COC(=O)/C=C(\\C(=O)OC)c1c2c3c(cc(OC)c(OC)c3c3ccccc13)CCN2C", "CAT": "false (0)"}
{"MOLECULE": "N#CCCN(CCC#N)c1ccc(/C=C2\\SC(=S)NC2=O)cc1Br", "CAT": "false (0)"}
{"MOLECULE": "CC(=O)CC(OC(C)=O)C1=CCC2C(CC1C)OC(=O)C2C (stereo unspecified)", "CAT": "false (0)"}
{"MOLECULE": "CCOc1snc(C(Cl)(Cl)Cl)c1Cl", "CAT": "false (0)"}
{"MOLECULE": "CC1(C)CCC2(C(=O)OC3OC(CO)C(O)C(O)C3O)CCC3(C)C(=CCC4C5(C)CCC(OC6OC(CO)C(O)C(O)C6O)C(C)(C)C5CCC43C)C2C1 (stereo unspecified)", "CAT": "false (0)"}
{"MOLECULE": "Cc1cc(Cl)ccc1NC(=O)C(=O)Cc1ccc([N+](=O)[O-])c([N+](=O)[O-])c1CC(=O)C(=O)Nc1ccc(Cl)cc1C", "CAT": "false (0)"}
{"MOLECULE": "COc1ccc2c(c1)CCN=C2Cc1cc(OC)c(OC)cc1CCCl", "CAT": "false (0)"}
{"MOLECULE": "CN1CCN(/C(N)=C(\\C#N)C(=O)Nc2ccccc2)CC1", "CAT": "false (0)"}
{"MOLECULE": "Cc1c(C)c(C)c(-n2c(=O)n(C)c(=O)n2C(C)(C)C)c(C)c1C", "CAT": "false (0)"}
{"MOLECULE": "O=C(Cn1c2ccc(Br)cc2c2nc3ccccc3nc21)NC1CCCCC1", "CAT": "false (0)"}
{"MOLECULE": "CC1OC2(CC(OCc3ccccc3)C1OCc1ccccc1)OCCO2 (stereo unspecified)", "CAT": "false (0)"}
{"MOLECULE": "N#Cc1c2c(c(N3CCOCC3)n3c1nc1ccccc13)CCCC2", "CAT": "false (0)"}
{"MOLECULE": "Cc1ccc2ccc(O)cc2c1", "CAT": "false (0)"}
{"MOLECULE": "NS(=O)(=O)c1ccc(NC(=O)CC(=O)Nc2ccc(S(N)(=O)=O)cc2)cc1", "CAT": "false (0)"}
{"MOLECULE": "Cc1ccc(-c2cc(-c3ccco3)c(C#N)c(=S)[nH]2)cc1", "CAT": "false (0)"}
{"MOLECULE": "N#CC(NCCc1ccccc1)c1ccccc1 (stereo unspecified)", "CAT": "false (0)"}
{"MOLECULE": "CNC(=O)OCc1c(COC(=O)NC)c(-c2ccc(Cl)c(Cl)c2)n2c1SCC2", "CAT": "false (0)"}
{"MOLECULE": "C=CC(=O)NCNC(=O)C=C", "CAT": "false (0)"}
{"MOLECULE": "CN(C)CCCNc1ccc([N+](=O)[O-])c2nc3ccccc3c(N)c12", "CAT": "true (1)"}
{"MOLECULE": "O=C1Nc2cccc(Cl)c2/C1=C\\c1c(Cl)nc2n1CCS2", "CAT": "false (0)"}
{"MOLECULE": "COc1ccc2c(c1)C(O)(C(F)(F)F)c1cc(C(=O)C(F)(F)F)c3ccccc3c1N2 (stereo unspecified)", "CAT": "false (0)"}
{"MOLECULE": "O=C1Cc2c([nH]c3ccc(C(=O)O)cc23)-c2ccccc2N1", "CAT": "false (0)"}
{"MOLECULE": "Cn1cc(NC(=O)c2cc(NC(=O)Nc3cc(C(=O)Nc4cc(C(=O)NCCC(=N)N)n(C)c4)n(C)c3)cn2C)cc1C(=O)NCCC(=N)N", "CAT": "false (0)"}
{"MOLECULE": "COC(=O)/C(C#N)=C1\\NN=NN1c1ccc(OC)cc1", "CAT": "false (0)"}
{"MOLECULE": "C=CC[P@]1(=O)O[C@H](c2ccccc2)C(C)N1C(C)C (stereo partly specified)", "CAT": "false (0)"}
{"MOLECULE": "COC(=O)C(Cc1ccccc1)NP(=O)(O)OCC1OC(n2cc(I)c(=O)[nH]c2=O)CC1O (stereo unspecified)", "CAT": "false (0)"}
{"MOLECULE": "N#CC1(C#N)C(=O)c2ccncc2C1=O", "CAT": "false (0)"}
{"MOLECULE": "Cc1ccc(NC(=O)c2cc3ccccc3c(/N=N\\c3ccccc3O)c2O)c(C)c1", "CAT": "true (1)"}
{"MOLECULE": "COC(=O)C(=O)C(C(=O)C=C(C)C)C(=O)C(=O)Nc1ccc(C)cc1C (stereo unspecified)", "CAT": "false (0)"}
{"MOLECULE": "CN(C)c1ccc(/C=N/NC(=O)c2cnc3ccccc3c2)cc1", "CAT": "false (0)"}
{"MOLECULE": "OCC(CCc1ccccc1I)C1=CCC2(CC1)OCCO2 (stereo unspecified)", "CAT": "false (0)"}
